- TARGET_UNDER_TEST: T1, PUF4 RNA-binding domain (Saccharomyces cerevisiae, UniProt P25339 537-888)
- T1 sequence: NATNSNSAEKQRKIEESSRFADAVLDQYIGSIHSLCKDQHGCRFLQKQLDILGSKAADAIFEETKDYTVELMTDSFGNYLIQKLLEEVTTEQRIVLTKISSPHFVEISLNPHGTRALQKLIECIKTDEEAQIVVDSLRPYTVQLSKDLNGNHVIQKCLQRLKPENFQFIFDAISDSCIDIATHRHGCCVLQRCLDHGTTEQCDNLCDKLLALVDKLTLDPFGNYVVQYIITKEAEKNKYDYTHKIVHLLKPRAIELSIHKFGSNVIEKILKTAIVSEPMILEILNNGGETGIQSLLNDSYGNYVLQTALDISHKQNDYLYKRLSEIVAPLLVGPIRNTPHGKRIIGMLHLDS
- METHOD_SUMMARY: Mg; RNA-MaP; 20 mM Na-HEPES pH 7.4, 30 mM KOAc, 0.75 mM MgCl2, 0.1% Tween-20, 5% glycerol, 0.1 mg/mL BSA, 2 mM DTT; 25 C; 0.0125-409.6 nM protein
- TEST_SETTINGS: tags: N-His6-TEV cleaved; C-SNAP kept, Cy3B-labelled; label: tethered on chip by stalled RNA polymerase
OBSERVED_PROPERTY: Kd (nM)

* Id_ii_S4_P3E.2_K3.1_C3.2_[C-2A]_H3.1_A3.1_F3.1_T3.2_[T9A] (ssRNA) RNA: UUUGACAACUGAUCGUUCUUUCUAUUGUAUAUAAAUUCUUUCUCGAUCAGUUGUCUUU | 11.8
* Id_ii_S4_P3E.3_K3.2_C3.2_[C-2A]_[T-1G]_H3.2_A3.1_F3.1_T3.2_[T9A]_[A10G] (ssRNA) RNA: UUUGACAACUGAUCGUUCUUUCUAGUAUAUAUAAGUUCUUUCUCGAUCAGUUGUCUUU | 1140
* Id_ii_S2_P4E.4_K4.3_C4.2_[C-2T]_H4.3_A4.1_F4.1_T4.2_[G10C]_[T11C] (ssRNA) RNA: UUUGAUUAAUAUGAUAUCGUUCUUUCUUUACACUAUUACCUUCUUUCUCGAUAUCAUAUUAAUCUUU | 306

Where these numbers come from: paper PMC9352680
